Quick record of IC50 values for Jarid1A (Homo sapiens (Human)).

// worked examples, IC50 included
Molecule | Property Name | Val
Cn1cnc(-c2cc(C(=O)O)ccn2)c1-c1ccc(-n2cccn2)cc1 | IC50 | ≤ 100 nM
O=C(O)c1ccnc(-c2cn(CCN3CCOCC3)cn2)c1 | IC50 | 1000 to 10000 nM

Give one value of IC50 per listed molecule.
1. O=C(O)c1ccnc(-c2cn(CCc3ccccc3C(F)(F)F)cn2)c1
2. Cn1cnc(-c2cc(C(=O)O)ccn2)c1-c1ccc(N2CCCC2)cc1
3. Cc1cccc(CN(C)CCn2cnc(-c3cc(C(=O)O)ccn3)c2)c1
4. Cn1cnc(-c2cc(-c3nn[nH]n3)ccn2)c1
5. CN(CCn1cnc(-c2cc(C(=O)NC#N)ccn2)c1)CC1CC1
6. CN(CCn1cnc(-c2cc(C(=O)O)ccn2)c1)Cc1ccc(C(F)(F)F)cc1
7. CN1CCOC(Cn2cnc(-c3cc(C(=O)O)ccn3)c2)C1 (stereo not drawn)

## Result
1. ≤ 100 nM
2. ≤ 100 nM
3. ≤ 100 nM
4. 100 to 1000 nM
5. ≤ 100 nM
6. ≤ 100 nM
7. ≤ 100 nM

* * *

molecular target: JMJD2C (Homo sapiens (Human), UniProt Q9H3R0)
Sequence (Q9H3R0 2-372): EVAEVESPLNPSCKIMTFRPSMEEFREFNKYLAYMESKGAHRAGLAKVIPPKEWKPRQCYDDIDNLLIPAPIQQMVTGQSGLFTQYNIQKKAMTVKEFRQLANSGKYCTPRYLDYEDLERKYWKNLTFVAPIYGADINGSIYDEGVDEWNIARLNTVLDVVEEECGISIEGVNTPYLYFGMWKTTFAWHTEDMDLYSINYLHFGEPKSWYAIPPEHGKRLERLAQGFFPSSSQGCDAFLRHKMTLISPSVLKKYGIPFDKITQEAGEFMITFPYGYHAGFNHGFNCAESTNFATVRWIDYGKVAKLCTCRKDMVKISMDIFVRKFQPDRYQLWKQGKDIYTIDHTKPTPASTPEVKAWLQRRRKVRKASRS
Property Name: IC50

// worked examples, IC50 included
Molecule | IC50
CCOc1cc(Cl)ccc1-c1c(-c2cc(C(=O)O)ccn2)ncn1C [Example 32] | 1 to 10 µM
c1ccc2c(Cn3cnc(-c4cc(-c5nn[nH]n5)ccn4)c3)cccc2c1 [Example 155] | 1 to 10 µM
O=C(O)c1ccnc(-c2cn(C3CCNC3)cn2)c1 (centres unmarked) [Example 52] | ≤ 0.1 µM

Give one value of IC50 per listed molecule.
1. c1ccc2c(c1)CCC(Cn1cnc(-c3cc(-c4nn[nH]n4)ccn3)c1)C2 (centres unmarked) [Example 146]
2. O=C(O)c1ccnc(-c2cn(C3Cc4ccccc4C3)cn2)c1 [Example 99]

## Result
1: 1 to 10 µM; 2: 0.1 to 1 µM

* * *

Quick record of IC50 values for JMJD2C (Homo sapiens (Human), UniProt Q9H3R0).

Give one value of IC50 per listed compound.
1. Clc1ccc(-c2c(-c3cc(-c4nn[nH]n4)ccn3)ncn2CCc2ccccc2Cl)cc1
2. Cn1cnc(-c2cc(-c3nn[nH]n3)ccn2)c1-c1ccc(F)c2ccccc12
3. O=C(O)c1ccnc(-c2cn(Cc3cccc(C(F)(F)F)c3)cn2)c1
4. Clc1cccc(Cn2cnc(-c3cc(-c4nn[nH]n4)ccn3)c2)c1
5. CC(C)C(c1ccccc1)n1cnc(-c2cc(-c3nn[nH]n3)ccn2)c1 (centres unmarked)

## Result
1 to 10 µM
1 to 10 µM
0.1 to 1 µM
1 to 10 µM
1 to 10 µM

* * *

Kindly supply the reported IC50 values for the records listed here.
molecular target: Jarid1A (Homo sapiens (Human), UniProt P29375)
Sequence (P29375 1-1090): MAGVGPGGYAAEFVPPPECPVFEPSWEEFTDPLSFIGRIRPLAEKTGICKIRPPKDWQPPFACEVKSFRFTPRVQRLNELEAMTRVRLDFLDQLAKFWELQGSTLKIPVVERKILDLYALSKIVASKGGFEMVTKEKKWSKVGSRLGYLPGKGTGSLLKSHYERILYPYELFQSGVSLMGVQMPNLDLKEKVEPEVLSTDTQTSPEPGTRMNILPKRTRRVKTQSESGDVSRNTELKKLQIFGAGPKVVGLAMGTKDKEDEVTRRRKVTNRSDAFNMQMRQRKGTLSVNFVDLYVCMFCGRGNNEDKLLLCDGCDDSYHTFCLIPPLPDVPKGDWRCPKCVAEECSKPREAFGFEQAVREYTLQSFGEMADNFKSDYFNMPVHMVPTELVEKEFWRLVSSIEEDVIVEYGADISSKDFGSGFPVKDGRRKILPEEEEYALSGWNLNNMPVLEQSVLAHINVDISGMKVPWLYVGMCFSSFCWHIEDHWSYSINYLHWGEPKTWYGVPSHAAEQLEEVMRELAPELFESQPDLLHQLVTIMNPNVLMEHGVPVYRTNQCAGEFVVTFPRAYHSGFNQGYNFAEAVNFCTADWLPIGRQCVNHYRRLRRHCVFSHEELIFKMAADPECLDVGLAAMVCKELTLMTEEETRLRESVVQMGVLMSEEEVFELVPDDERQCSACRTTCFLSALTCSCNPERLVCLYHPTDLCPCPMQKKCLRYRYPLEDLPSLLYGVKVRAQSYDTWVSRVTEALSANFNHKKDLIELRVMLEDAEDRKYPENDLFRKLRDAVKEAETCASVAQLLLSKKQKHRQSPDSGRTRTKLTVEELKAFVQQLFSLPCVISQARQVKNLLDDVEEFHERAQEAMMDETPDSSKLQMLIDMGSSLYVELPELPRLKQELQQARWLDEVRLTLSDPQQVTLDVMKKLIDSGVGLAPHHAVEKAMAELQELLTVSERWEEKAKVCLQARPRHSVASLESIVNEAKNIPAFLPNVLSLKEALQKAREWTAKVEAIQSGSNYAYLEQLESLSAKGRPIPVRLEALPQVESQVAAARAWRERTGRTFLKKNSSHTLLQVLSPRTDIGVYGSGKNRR

// worked examples, IC50 included
Structure Smiles String | IC50
Cn1cnc(-c2cc(C(=O)O)ccn2)c1-c1ccc(C2(CO)CC2)cc1 | ≤ 100 nM
O=C(O)c1ccnc(-c2cn(CCNCc3ccc(F)cc3)cn2)c1 | ≤ 100 nM

Give one value of IC50 per listed molecule.
1. Clc1ccccc1CCn1cnc(-c2cc(-c3nn[nH]n3)ccn2)c1
2. O=C(O)c1ccnc(-c2cn(CCN3CCCc4ccccc43)cn2)c1
3. c1cc(-c2nn[nH]n2)cc(-c2cn(CCN3CCCC3)cn2)n1

## Result
1. 100 to 1000 nM
2. ≤ 100 nM
3. ≤ 100 nM

* * *

Quick record of IC50 values for Jarid1A (Homo sapiens (Human)).

Compound | IC50
CCc1ccc(-c2c(-c3cc(C(=O)O)ccn3)ncn2C)cc1 [Example 5] | ≤ 100 nM
O=C(O)c1ccnc(-c2cn(CC3CCCCC3)cn2)c1 [Example 115] | ≤ 100 nM
O=C(O)c1ccnc(-c2cn(CCN3CCCC3)cn2)c1 [Example 43] | ≤ 100 nM
CCC(c1ccccc1)n1cnc(-c2cc(-c3nn[nH]n3)ccn2)c1 (stereo not shown) [Example 144] | 100 to 1000 nM
Cn1cnc(-c2cc(C(=O)O)ccn2)c1 [Example 1] | ≤ 100 nM

Give one value of IC50 per listed compound.
1. CN(CCn1cnc(-c2cc(C(=O)O)ccn2)c1)c1ccccc1 [Example 58]
2. O=C(O)c1ccnc(-c2cn(CCN3Cc4ccccc4C3)cn2)c1 [Example 76]
3. Cn1cnc(-c2cc(C(=O)O)ccn2)c1-c1ccc(C(C)(C)C)cc1 [Example 9]
4. O=C(O)c1ccnc(-c2cn(CCN(Cc3ccc(F)cc3)C3CC3)cn2)c1 [Example 71]
5. Cn1cnc(-c2cc(C(=O)O)ccn2)c1-c1cccc(CO)c1 [Example 11]
6. N#Cc1cccc2c1CN(CCn1cnc(-c3cc(C(=O)O)ccn3)c1)C2 [Example 83]

## Result
≤ 100 nM
≤ 100 nM
100 to 1000 nM
≤ 100 nM
100 to 1000 nM
≤ 100 nM

Give one value of IC50 per listed compound.
1. CN(C)CCOCCn1cnc(-c2cc(C(=O)O)ccn2)c1 [Example 48]
2. CN(C)CCn1cnc(-c2cc(C(=O)O)ccn2)c1 [Example 40]

## Result
≤ 100 nM
≤ 100 nM

* * *

Quick record of IC50 values for FBXL10 (Homo sapiens (Human), UniProt Q8NHM5).

Compound | IC50
O=C(O)c1ccnc(-c2ncn(CCc3ccccc3Cl)c2-c2ccc(F)cc2)c1 | ≤ 100 nM

Give one value of IC50 per listed compound.
1. Clc1ccc(Cn2cnc(-c3cc(-c4nn[nH]n4)ccn3)c2)cc1
2. O=C(O)c1ccnc(-c2cn(C3Cc4ccccc4C3)cn2)c1
3. CCC(c1ccccc1)n1cnc(-c2cc(-c3nn[nH]n3)ccn2)c1 (stereo not shown)
4. O=C(O)c1ccnc(-c2cn(Cc3cccc(F)c3)cn2)c1
5. Fc1ccc(-c2c(-c3cc(-c4nn[nH]n4)ccn3)ncn2Cc2cccc(Cl)c2)c(OCC2CC2)c1
6. O=C(O)c1ccnc(-c2ncn(Cc3ccccc3Cl)c2-c2ccc(F)cc2)c1
7. O=C(O)c1ccnc(-c2cn(CCN(Cc3ccc(Cl)c(Cl)c3)C3CC3)cn2)c1

## Result
1: ≤ 100 nM; 2: ≤ 100 nM; 3: ≤ 100 nM; 4: ≤ 100 nM; 5: 100 to 1000 nM; 6: ≤ 100 nM; 7: ≤ 100 nM

* * *

target: FBXL10 (Homo sapiens (Human), UniProt Q8NHM5)
Sequence (Q8NHM5 1-650): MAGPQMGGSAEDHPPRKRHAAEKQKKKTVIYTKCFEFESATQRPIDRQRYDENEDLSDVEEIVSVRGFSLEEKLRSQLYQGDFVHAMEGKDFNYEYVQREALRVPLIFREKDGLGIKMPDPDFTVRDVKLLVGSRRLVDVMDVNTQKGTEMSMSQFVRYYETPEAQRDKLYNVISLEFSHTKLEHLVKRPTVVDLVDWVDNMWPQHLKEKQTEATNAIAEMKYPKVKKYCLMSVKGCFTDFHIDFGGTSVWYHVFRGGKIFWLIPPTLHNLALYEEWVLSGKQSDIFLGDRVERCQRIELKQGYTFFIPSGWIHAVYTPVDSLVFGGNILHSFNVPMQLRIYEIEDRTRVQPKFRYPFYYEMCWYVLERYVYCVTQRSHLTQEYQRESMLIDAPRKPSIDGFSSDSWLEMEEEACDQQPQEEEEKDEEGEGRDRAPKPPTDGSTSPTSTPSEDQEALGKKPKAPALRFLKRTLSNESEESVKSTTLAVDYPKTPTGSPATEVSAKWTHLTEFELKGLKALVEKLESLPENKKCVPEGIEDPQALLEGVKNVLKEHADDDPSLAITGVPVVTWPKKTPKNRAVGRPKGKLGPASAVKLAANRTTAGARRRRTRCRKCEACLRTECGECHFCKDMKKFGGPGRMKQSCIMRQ
Property Name: IC50

Molecule | Test Target | Property Name | Val
O=C(O)c1ccnc(-c2cn(C3CCc4ccc(F)cc43)cn2)c1 (centres unmarked) [Example 109] | FBXL10 (Homo sapiens (Human), UniProt Q8NHM5) | IC50 | ≤ 100 nM
Cn1cnc(-c2cc(C(=O)O)ccn2)c1-c1cccc(Cl)c1 [Example 20] | FBXL10 (Homo sapiens (Human), UniProt Q8NHM5) | IC50 | ≤ 100 nM

Give one value of IC50 per listed molecule.
1. Cn1cnc(-c2cc(-c3nn[nH]n3)ccn2)c1-c1ccc(F)c(OCc2ccccc2)c1 [Example 160]
2. CC(Cc1ccccc1)n1cnc(-c2cc(C(=O)O)ccn2)c1 (centres unmarked) [Example 106]

## Result
1: ≤ 100 nM; 2: ≤ 100 nM

* * *

target: FBXL10 (Homo sapiens (Human))
Property Name: IC50

Give one value of IC50 per listed compound.
1. CC(C)(Cn1cnc(-c2cc(C(=O)O)ccn2)c1)c1ccccc1Cl
2. O=C(O)c1ccnc(-c2cn(CC3CCCN3)cn2)c1 (stereo not shown)
3. CCOc1ccc(-c2c(-c3cc(C(=O)O)ccn3)ncn2C)cc1
4. CCCCOc1cc(F)ccc1-c1c(-c2cc(-c3nn[nH]n3)ccn2)ncn1C

## Result
1: ≤ 100 nM; 2: 100 to 1000 nM; 3: 100 to 1000 nM; 4: ≤ 100 nM

* * *

Kindly supply the reported pIC50 values for the records listed here.
target: FBXL10 (Homo sapiens (Human), UniProt Q8NHM5)
pIC50: −log10 of the molar value.

Molecule | pIC50
O=C(O)c1ccnc(-c2ncn(CC3CC3)c2-c2ccc(Cl)cc2)c1 [Example 126] | ≥ 7.00
Cn1cnc(-c2cc(C(=O)O)ccn2)c1-c1cc(F)c(F)cc1OCC1CC1 [Example 121] | ≥ 7.00
CC(c1ccccc1Cl)n1cnc(-c2cc(-c3nn[nH]n3)ccn2)c1 (stereo not drawn) [Example 157] | ≥ 7.00
Cc1ccc(-c2c(-c3cc(C(=O)O)ccn3)ncn2C)cc1O [Example 3] | 6.00 to 7.00
O=C(O)c1ccnc(-c2cn(CCN3CCc4cc(F)ccc43)cn2)c1 [Example 91] | 6.00 to 7.00

Give one value of pIC50 per listed molecule.
1. O=C(O)c1ccnc(-c2cn(CCN3CCCc4cc(Cl)ccc43)cn2)c1 [Example 89]
2. c1ccc2c(Cn3cnc(-c4cc(-c5nn[nH]n5)ccn4)c3)cccc2c1 [Example 155]
3. O=C(O)c1ccnc(-c2cn(CCNCC3CC(F)(F)C3)cn2)c1 [Example 73]

## Result
≥ 7.00
≥ 7.00
≥ 7.00

Give one value of pIC50 per listed molecule.
1. O=C(O)c1ccnc(-c2cn(Cc3ccccn3)cn2)c1 [Example 47]
2. Cn1cnc(-c2cc(-c3nn[nH]n3)ccn2)c1-c1ccc(F)c(O)c1 [Example 162]
3. CCC(c1ccccc1)n1cnc(-c2cc(C(=O)O)ccn2)c1 (stereo not drawn) [Example 107]
4. c1ccc2c(CCn3cnc(-c4cc(-c5nn[nH]n5)ccn4)c3)cccc2c1 [Example 142]

## Result
["≥ 7.00", "≥ 7.00", "≥ 7.00", "≥ 7.00"]
